Source listed as patent US20260209220A1.

study-target: hM4 receptors (Homo sapiens, UniProt P08173)
Sequence (P08173 whole entry): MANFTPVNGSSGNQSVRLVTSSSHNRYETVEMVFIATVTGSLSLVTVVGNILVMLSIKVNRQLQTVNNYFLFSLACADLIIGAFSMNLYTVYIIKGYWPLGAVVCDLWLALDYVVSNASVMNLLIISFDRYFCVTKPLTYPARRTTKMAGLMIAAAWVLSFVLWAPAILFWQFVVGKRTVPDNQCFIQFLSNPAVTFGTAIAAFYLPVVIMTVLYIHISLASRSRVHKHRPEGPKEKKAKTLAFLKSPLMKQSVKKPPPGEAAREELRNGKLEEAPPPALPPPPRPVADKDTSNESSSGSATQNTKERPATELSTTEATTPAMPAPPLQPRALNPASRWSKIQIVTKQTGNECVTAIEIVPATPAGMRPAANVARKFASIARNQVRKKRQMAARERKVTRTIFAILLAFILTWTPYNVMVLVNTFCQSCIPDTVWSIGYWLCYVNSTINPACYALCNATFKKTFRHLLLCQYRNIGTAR
test-method-notes: Human M4 PAM PERK assay (CHO cells, TR-FRET, with EC20 acetylcholine)
List of EC50 values.

Examples from the recorded data:
| compound | EC50 |
| --- | --- |
| COc1c2c(n(C)c(=O)c1C)CN(C(=O)CC1CN(c3ccncn3)C1)C2 [Compound I-98] | < 50 nM |
| Cc1c2c(n(CC(F)(F)F)c(=O)c1Cl)CN(C(=O)CC1CN(c3cccnc3)C1)C2 [Compound I-93] | 50 to 200 nM |
| Cc1c2c(n(C)c(=O)c1C)CN(C(=O)CC1CN(c3ccc(C4CC4)c(F)c3)C1C)C2 (single isomer, unassigned) [Compound I-61] | < 50 nM |

Please give the documented EC50 of Cc1c2c(n(C)c(=O)c1Cl)CN(C(=O)CC1CN(c3ccnc(C(F)(F)F)c3)C1)C2 [Compound I-66]
< 50 nM

Please give the documented EC50 of COc1cc(N2CC(CC(=O)N3Cc4c(C)cc(=O)n(C)c4C3)C2)cc(C(F)(F)F)n1 [Compound I-39]
50 to 200 nM

Please give the documented EC50 of Cc1cc(=O)n(C)c2c1CN(C(=O)CC1CN(c3ccc(C(F)(F)F)cn3)C1)C2 [Compound I-8]
200 to 1000 nM

Please give the documented EC50 of Cc1cc(=O)n(C)c2c1CN(C(=O)CC1CN(c3ccc4c(c3)COC4)C1)C2 [Compound I-16]
50 to 200 nM
